src = patent US10407409B2

Target under test: PHD2 enzyme (residues 181-417) (Homo sapiens (Human), UniProt Q9GZT9)
Sequence (Q9GZT9 181-417): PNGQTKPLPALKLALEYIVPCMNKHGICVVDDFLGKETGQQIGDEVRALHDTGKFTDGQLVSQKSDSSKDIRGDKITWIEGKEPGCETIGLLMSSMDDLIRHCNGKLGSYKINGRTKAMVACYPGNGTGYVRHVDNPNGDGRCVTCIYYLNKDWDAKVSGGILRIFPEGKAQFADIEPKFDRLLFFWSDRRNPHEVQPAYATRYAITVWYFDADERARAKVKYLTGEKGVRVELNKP
Experimental details: Inhibition of PHD enzyme (LC/MS peptide hydroxylation assay)
Type: biochemical
Stated conditions: PHD2 (residues 181-417) 5 nM, 60 min pre-incubation; -log(IC50), IC50 molar
Threshold 8. PHD Inhibition (pIC50) below it: 1. PHD Inhibition (pIC50) at it or above: 0.

Input line: Is 8 strictly greater than the compound's reported PHD Inhibition (pIC50)? compound: N#Cc1ccc(-c2cnn(-c3ccc(C(=O)N4CCC[C@@H]4CN4CCCC4)cn3)c2O)cc1 [Example 364]
Output line: 1

Input line: Is 8 strictly greater than the compound's reported PHD Inhibition (pIC50)? compound: Cc1cc(C#N)ccc1-c1cnn(-c2ccc(C(=O)N3CCN(C4CC4)CC3)cn2)c1O [Example 414]
Output line: 0

Input line: Is 8 strictly greater than the compound's reported PHD Inhibition (pIC50)? compound: O=C(NCC1CCOCC1)c1ccc(-n2ncc(-c3ccncc3)c2O)nc1 [Example 226]
Output line: 1

Input line: Is 8 strictly greater than the compound's reported PHD Inhibition (pIC50)? compound: CC(C)(C)NC(=O)c1ccc(-n2ncc(-c3ccc(C#N)cc3)c2O)nc1 [Example 202]
Output line: 1

Input line: Is 8 strictly greater than the compound's reported PHD Inhibition (pIC50)? compound: N#Cc1ccc(-c2cnn(-c3ccc(C(=O)N[C@H]4CC[C@@H](O)C4)cn3)c2O)cc1 [Example 258]
Output line: 1

Input line: Is 8 strictly greater than the compound's reported PHD Inhibition (pIC50)? compound: Cc1c(-c2cnn(-c3ccc(C(=O)N4CC[C@@H](N(C)C)C4)cn3)c2O)ccc(C#N)c1F [Example 317]
Output line: 0

Input line: Is 8 strictly greater than the compound's reported PHD Inhibition (pIC50)? compound: Cc1cc(C#N)ccc1-c1cnn(-c2ccc(C(=O)NCCCn3cccn3)cn2)c1O [Example 141]
Output line: 0

Input line: Is 8 strictly greater than the compound's reported PHD Inhibition (pIC50)? compound: COCCCNC(=O)c1ccc(-n2ncc(-c3ccc(C#N)cc3)c2O)nc1 [Example 148]
Output line: 1

Input line: Is 8 strictly greater than the compound's reported PHD Inhibition (pIC50)? compound: COCCC(C)NC(=O)c1ccc(-n2ncc(-c3ccc(C#N)cc3)c2O)nc1 (centres unmarked) [Example 176]
Output line: 1

Input line: Is 8 strictly greater than the compound's reported PHD Inhibition (pIC50)? compound: N#Cc1ccc(-c2cnn(-c3ccc(C(=O)NCc4ccccc4)cn3)c2O)cc1F [Example 188]
Output line: 1

Input line: Is 8 strictly greater than the compound's reported PHD Inhibition (pIC50)? compound: COCCCCNC(=O)c1ccc(-n2ncc(-c3ccc(C#N)cc3F)c2O)nc1 [Example 285]
Output line: 0

Input line: Is 8 strictly greater than the compound's reported PHD Inhibition (pIC50)? compound: Cc1cc(C#N)ccc1-c1cnn(-c2ccc(C(=O)NCCCO)cn2)c1O [Example 125]
Output line: 1
